molecular target: panel of 255 wild-type kinases (Homo sapiens, UniProt O60285); experiment: Kinase panel profiling at 1 µmol/L (MSA or IMAP), percentage inhibition; type: biochemical; settings: NuaK1; 1 µmol/L single concentration; read-out: %-inhibition, NuaK1
Sequence (O60285 whole entry): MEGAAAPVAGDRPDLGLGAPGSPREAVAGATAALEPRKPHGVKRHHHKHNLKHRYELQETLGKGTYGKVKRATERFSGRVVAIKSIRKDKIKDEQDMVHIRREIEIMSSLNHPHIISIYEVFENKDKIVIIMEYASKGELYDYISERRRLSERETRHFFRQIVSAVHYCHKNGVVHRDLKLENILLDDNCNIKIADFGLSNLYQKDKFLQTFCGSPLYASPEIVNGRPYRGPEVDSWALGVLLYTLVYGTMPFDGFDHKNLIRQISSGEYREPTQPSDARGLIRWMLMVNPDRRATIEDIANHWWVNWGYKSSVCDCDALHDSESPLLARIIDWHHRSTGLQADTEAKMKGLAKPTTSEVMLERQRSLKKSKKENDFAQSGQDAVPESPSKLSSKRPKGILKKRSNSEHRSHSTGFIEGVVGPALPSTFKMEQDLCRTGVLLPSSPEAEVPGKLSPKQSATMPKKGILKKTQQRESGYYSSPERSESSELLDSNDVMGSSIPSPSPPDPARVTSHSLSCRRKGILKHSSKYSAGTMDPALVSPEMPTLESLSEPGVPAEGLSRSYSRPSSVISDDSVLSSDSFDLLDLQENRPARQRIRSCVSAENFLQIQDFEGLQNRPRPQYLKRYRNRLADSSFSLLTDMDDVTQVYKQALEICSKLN
measured.metric: inhibition at 1 µM (%)
Number only, in %; omit the unit.

Query: Fill in inhibition at 1 µM for record CO[C@]1(C(=O)N[C@@H](C)c2ccc(-n3cc(F)cn3)nc2)CC[C@H](c2nc(C)cc(Nc3cc(C)[nH]n3)n2)CC1 [pralsetinib]
Result: 91

Query: Fill in inhibition at 1 µM for record COc1ccc(CN2C3CC2CN(c2ccc(-c4cc(OCC(C)(C)O)cn5ncc(C#N)c45)cn2)C3)cn1 [selpercatinib]
Result: 10

This collection of values is drawn from paper PMC9516332.
